# Test system: phosphorylation of AKT (pAKT) in T47D cells expressing mutant PI3Ka (H1047R)
# assayNotes: In vitro cell pAKT (Ser473) HTRF, T47D cells
# Assay type: cell-based
# recordedConditions: cellular pAKT, T47D cells, mutant PI3Ka (H1047R), 6 hours; read-out: Avg T-47D IC50
pIC50: −log10 of the molar value.
readout: pIC50

Please review the following examples before continuing.
[ask] Kindly indicate its recorded pIC50. Item: Cc1cc([C@@H](C)Nc2ccccc2C(=O)O)c2cc(-c3ccc(Oc4ccc(F)cc4)nc3)n(C)c(=O)c2c1
[reply] 6.30 to 9.00

[ask] Kindly indicate its recorded pIC50. Item: C[C@@H](Nc1cccc(F)c1C(=O)O)c1cc(F)cc2c(=O)n(C)c(-c3ccc(OCC(F)(F)F)nc3)cc12
[reply] 6.30 to 9.00

Next, consider the following compound.
[ask] Kindly indicate its recorded pIC50. Item: CC(Nc1ccccc1C(=O)O)c1cc(F)cc2c(=O)n(C)c(N3C4CCC3CN(CC(F)(F)F)C4)c(F)c12 (single isomer, unassigned) [Example 566]
[reply] < 4.82

----------
# EC50 values compiled below
# Tested on: SKBR3 cells express WT PI3Ka
# assayNotes: In vitro cell proliferation, SKBR3 cells (CellTiter-Glo)
# Assay type: cell-based
# recordedConditions: Homo sapiens, SK-BR-3, 72 h, inhibition of proliferation

[ask] Kindly indicate its recorded EC50. Item: C[C@@H](Nc1ccccc1C(=O)O)c1cc(F)cc2c(=O)n(C)c(N3CC4CCC(C3)N4CC(F)(F)F)cc12 [Example 511]
[reply] 2 to 15 µM

[ask] Kindly indicate its recorded EC50. Item: Cc1cc(C(C)Nc2ccccc2C(=O)O)c2cc(N3CCc4ncncc4C3)n(C)c(=O)c2c1 (stereo not shown) [Example 86]
[reply] > 15 µM

[ask] Kindly indicate its recorded EC50. Item: Cc1cc([C@@H](C)Nc2ccc(Cl)nc2C(=O)O)c2cc(N3CCN(Cc4ccc(F)cc4)CC3)n(C)c(=O)c2c1 [Example 25]
[reply] 2 to 15 µM

[ask] Kindly indicate its recorded EC50. Item: Cc1cc(C(C)Nc2ccccc2C(=O)O)c2cc(N3Cc4cncnc4C3)n(C)c(=O)c2c1 (stereo not shown) [Example 72]
[reply] > 15 µM

Next, consider the following molecule.
[ask] Kindly indicate its recorded EC50. Item: Cc1cc([C@@H](C)Nc2ccccc2C(=O)O)c2cc(N3CCn4cc(C(F)(F)F)nc4C3)n(C)c(=O)c2c1 [Example 432]
[reply] > 15 µM

----------
# Tested on: SKBR3 cells express WT PI3Ka
# assayNotes: In vitro cell proliferation, SKBR3 cells (CellTiter-Glo)
# Format: cell-based
# recordedConditions: Homo sapiens, SK-BR-3, 72 h, inhibition of proliferation
pEC50: −log10 of the molar value.
readout: pEC50

Please review the following examples before continuing.
[ask] Kindly indicate its recorded pEC50. Item: Cc1cc([C@@H](C)Nc2ccc(Cl)nc2C(=O)O)c2cc(N3CCN(c4ccc(F)cc4)CC3)n(C)c(=O)c2c1
[reply] 4.82 to 5.70

[ask] Kindly indicate its recorded pEC50. Item: COc1ccc(-c2cc3c(C(C)Nc4ccccc4C(=O)O)cc(C)cc3c(=O)n2C)cn1 (single isomer, unassigned)
[reply] < 4.82

[ask] Kindly indicate its recorded pEC50. Item: Cc1cc(C(C)Nc2ccccc2C(=O)O)c2cc(N3Cc4ccncc4C3)n(C)c(=O)c2c1 (stereo not shown) [Example 66]
[reply] < 4.82

---
[ask] Kindly indicate its recorded pEC50. Item: Cc1cc([C@@H](C)Nc2ccccc2C(=O)O)c2cc(OCc3ccnc(C)c3)n(C)c(=O)c2c1
[reply] < 4.82
